Source: patent US20210363269A1

# assay.system: T1, human SIRPγ isoform 1 (human, UniProt Q9P1W8 29-147)
# T1 construct: also called SIRPg; sirpg
# T1 sequence (Q9P1W8 29-147 limits assumed): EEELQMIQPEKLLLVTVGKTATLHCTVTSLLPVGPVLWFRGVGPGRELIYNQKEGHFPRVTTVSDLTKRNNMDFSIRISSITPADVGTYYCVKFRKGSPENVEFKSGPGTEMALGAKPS
# experiment.notes: SPR, Langmuir fit
Quick reference for koff among some binders
Kindly provide the numeric value in s⁻¹ only, without the unit symbol.

Qu. Please report koff for the following binder: S59 (scFv, V domains shown, also called clone 59) VH: DVQLVESGGGVVRPGESLRLSCAVSGFRFSSHAMSWVRQAPGKGLEWVSGISSGGDTYYVDSVKGRFTISRDNSKNTLYLQVNSLTAEDTAIYYCARETWNHLFDYWGLGTLVTVSS VL: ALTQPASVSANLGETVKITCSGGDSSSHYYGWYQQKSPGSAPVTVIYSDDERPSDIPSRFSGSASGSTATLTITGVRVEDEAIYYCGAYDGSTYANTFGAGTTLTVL
Ans. 4.28e-05

Qu. Please report koff for the following binder: S27 (scFv, V domains shown, also called clone 27; scFv-Fc form of AB27) VH: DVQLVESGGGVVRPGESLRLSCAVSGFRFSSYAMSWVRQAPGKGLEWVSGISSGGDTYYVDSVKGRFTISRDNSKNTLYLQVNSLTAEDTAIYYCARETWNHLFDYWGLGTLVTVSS VL: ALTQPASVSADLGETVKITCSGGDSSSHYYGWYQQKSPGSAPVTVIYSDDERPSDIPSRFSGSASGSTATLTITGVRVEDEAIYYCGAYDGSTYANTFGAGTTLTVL
Ans. 9.46e-05

# evaluate next
Qu. Please report koff for the following binder: S70 (scFv, V domains shown, also called clone 70) VH: DVQLVESGGGVVRPGESLRLSCAASGFTFSSYAMSWVRQAPGKGLEWLAGISAGGSDAYYIDSVKGRFTISRDNSKNSLYLQMNSLTAEDTAVYYCARETWNHLFDYWGLGTLVTVSS VL: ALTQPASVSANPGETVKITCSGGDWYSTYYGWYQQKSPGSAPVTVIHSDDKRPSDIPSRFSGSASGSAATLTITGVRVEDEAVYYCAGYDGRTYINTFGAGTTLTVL
Ans. 0.000222
